experiment: acute toxicity (lethal dose 50); details: in vivo; male mouse, intravenous (basis)
readout-label: LD50 (mg/kg)

1) C=CCN1CCCC1CNC(=O)c1cc(S(=O)(=O)NC)c(N)cc1OC (stereo not shown) [Benzamide according to the invention] ... 44

###

experiment: acute toxicity (lethal dose 50); conditions: in vivo, sc; male mouse, subcutaneous (basis)
readout-label: LD50 (mg/kg)

1. C=CCN1CCCC1CNC(=O)c1cc(S(=O)(=O)NC)c(N)cc1OC (stereo not shown) [Benzamide according to the invention] ... 204
